- Test system: Staphylococcus aureus
- assayName: Antibacterial activity against methicillin-resistant Staphylococcus aureus 16-34 clinical isolate after 18 hrs by agar dilution method
- Format: functional
- statedConditions: 16-34, 18 h
List of MIC values.
readoutKind: MIC (µg/mL)

                                querysmiles  readoutkind  prefixoperator  reported
0  COc1ccc2c(c[n+]3c4c2cc(Cc2ccc(Cl)cc2)c2c5c(cc(c24)CC3)OCO5)c1OC.[Br-]          MIC               =         4
1  COc1ccc2c(c[n+]3c4c2cc(Cc2ccc(C#N)cc2)c2c5c(cc(c24)CC3)OCO5)c1OC.[Br-]          MIC               >        64
2  COc1ccc2c(c[n+]3c4c2cc(Cc2ccc(OC(F)(F)F)cc2)c2c5c(cc(c24)CC3)OCO5)c1OC.[Br-]          MIC               =        64
3  COc1ccc2c(c[n+]3c4c2cc(Cc2ccc(F)c(C(F)(F)F)c2)c2c5c(cc(c24)CC3)OCO5)c1OC.[Br-]          MIC               =        64
4  COc1ccc2c(c[n+]3c4c2cc(Cc2cccnc2)c2c5c(cc(c24)CC3)OCO5)c1OC.[Br-]          MIC               =        32
5  COc1ccc2c(c[n+]3c4c2cc(Cc2ccc([N+](=O)[O-])cc2)c2c5c(cc(c24)CC3)OCO5)c1OC.[Br-]          MIC               >        64
6  COc1ccc2c(c[n+]3c4c2cc(Cc2cc(C)cc(C)c2)c2c5c(cc(c24)CC3)OCO5)c1OC.[Br-]          MIC               =         4

---

- System: Staphylococcus aureus
- assayName: Antibacterial activity against methicillin-sensitive Staphylococcus aureus ATCC 29213 after 18 hrs by agar dilution method
- Assay type: functional
- statedConditions: ATCC 29213, 18 h
Rule: MIC below 4 µg/mL gives y, anything at or above gives n.

In [3]: df
Out[3]:
                                 querysmiles  category
 0  COc1ccc2c(c[n+]3c4c2cc(Cc2ccc(C(C)(C)C)cc2)c2c5c(cc(c24)CC3)OCO5)c1OC.[Br-]         n
 1  COc1ccc2c(c[n+]3c4c2cc(Cc2cccc(C)c2)c2c5c(cc(c24)CC3)OCO5)c1OC.[Br-]         y
 2  COc1ccc2c(Cc3ccccc3)c3[n+](cc2c1OC)CCc1cc2c(cc1-3)OCO2.[Br-]         n
 3  C[C@H]1COc2c(N3CCN(C)CC3)c(F)cc3c(=O)c(C(=O)O)cn1c23.C[C@H]1COc2c(N3CCN(C)CC3)c(F)cc3c(=O)c(C(=O)O)cn1c23.O         y
 4  COc1ccc2c(c[n+]3c4c2cc(Cc2ccc(OC(F)(F)F)cc2)c2c5c(cc(c24)CC3)OCO5)c1OC.[Br-]         n
 5  COc1ccc2c(c[n+]3c4c2cc(Cc2ccc(C(C)C)cc2)c2c5c(cc(c24)CC3)OCO5)c1OC.[Br-]         n
 6  COc1ccc2c(c[n+]3c4c2cc(Cc2ccc(Cl)cc2)c2c5c(cc(c24)CC3)OCO5)c1OC.[Br-]         n
 7  COc1ccc2c(c[n+]3c4c2cc(Cc2ccc(F)c(C(F)(F)F)c2)c2c5c(cc(c24)CC3)OCO5)c1OC.[Br-]         n
 8  COc1ccc2c(c[n+]3c4c2cc(Cc2ccc(C)cc2)c2c5c(cc(c24)CC3)OCO5)c1OC.[Br-]         y
 9  COc1ccc2c(c[n+]3c4c2ccc2c5c(cc(c24)CC3)OCO5)c1OC.[Br-]         n
10  COc1ccc2c(c[n+]3c4c2cc(Cc2ccc(SC(F)(F)F)cc2)c2c5c(cc(c24)CC3)OCO5)c1OC.[Br-]         n
